Provide the recorded half-life for the entries that follow.
- MEASUREMENT_NOTES: Pharmacokinetics in CD-1 mice, single 100 nmol/kg subcutaneous dose
- Assay type: in vivo
- TEST_CONDITIONS: mouse, plasma, sc, male CD-1 mice, mean
*1 amine or outer side, *2 acyl side, *3 side chain or, on linkers, in order; H or OH if unused. Side-chain parts run from the residue outwards. [ ]: non-standard residue; d: D form. The star is where a group is joined. C20 diacid = O=C(O)CCCCCCCCCCCCCCCCCCC(=O)*; γGlu = O=C(O)[C@H](CCC(=O)[*:2])N[*:1]; εLys = N[C@@H](CCCCN[*:1])C(=O)[*:2]; pGlu = O=C1CC[C@@H](C(=O)O)N1; αMeL = CC(C)C[C@](C)(N)C(=O)O; AEEA = NCCOCCOCC(=O)O; Aib = CC(C)(N)C(=O)O
Answer with a number only, understood to be in h.

Query block: What does the record list as half-life for {C20 diacid-εLys-AEEA-γGlu}-GSPSIVTS[αMeL]DVPT[Aib][αMeL]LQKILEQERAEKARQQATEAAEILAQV-NH2 [SEQ ID NO: 25] ?
Result block: 32.5

Query block: Given [pGlu]GSPSGIVTS[αMeL]DVPT[Aib][αMeL]LQKILEQERAEKARQQAK([γGlu-AEEA-εLys-C20 diacid])EAAEILAQV-NH2 [SEQ ID NO: 22] , state its recorded half-life.
Result block: 25.1

Query block: Query: half-life; subject: Ac-GSPSIVTS[αMeL]DVPT[Aib][αMeL]LQKILEQERAEKARQQAK([γGlu-AEEA-εLys-C20 diacid])EAAEILAQV-NH2 [SEQ ID NO: 1]
Result block: 22.8

====

Task for the reader: assign each of the following substances its reported Cmax.
- MEASUREMENT_NOTES: Pharmacokinetics in Yucatan mini-pigs, single subcutaneous or intravenous dose
- Type: in vivo
- TEST_CONDITIONS: Yucatan mini-pig, minipig, plasma, sc; male Yucatan pigs; single subcutaneous dose 19 nmol/kg; Mean; read-out: Cmax
*1 amine or outer side, *2 acyl side, *3 side chain or, on linkers, in order; H or OH if unused. Side-chain parts run from the residue outwards. [ ]: non-standard residue; d: D form. The star is where a group is joined. C20 diacid = O=C(O)CCCCCCCCCCCCCCCCCCC(=O)*; γGlu = O=C(O)[C@H](CCC(=O)[*:2])N[*:1]; εLys = N[C@@H](CCCCN[*:1])C(=O)[*:2]; αMeL = CC(C)C[C@](C)(N)C(=O)O; AEEA = NCCOCCOCC(=O)O; Aib = CC(C)(N)C(=O)O
Value expressed in nM; do not type the unit.

Query block: Requested read-out: Cmax. Entry: Ac-GSPSIVTS[αMeL]DVPT[Aib][αMeL]LQKILEQERAEKARQQAK([γGlu-AEEA-εLys-C20 diacid])EAAEILAQV-NH2 [SEQ ID NO: 1]
Result block: 147

Query block: Param item = {C20 diacid-εLys-AEEA-γGlu}-GSPSIVTS[αMeL]DVPT[Aib][αMeL]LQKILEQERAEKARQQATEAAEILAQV-NH2 [SEQ ID NO: 25] ; retrieve measured Cmax.
Result block: 170

Query block: Dear colleague, I am looking for the recorded Cmax of the following substance: Ac-GSPSIVTS[αMeL]DVPT[Aib][αMeL]LQKLLEQERAEKARQQAK([γGlu-AEEA-εLys-C20 diacid])EAAEILAQV-NH2 [SEQ ID NO: 2]
Result block: 107

Query block: Any idea what its Cmax is? The substance is Ac-PPPIVTS[αMeL]DVPT[Aib][αMeL]LQKLLEQERAEKARQQAK([γGlu-AEEA-εLys-C20 diacid])EAAEILAQV-NH2 [SEQ ID NO: 48]
Result block: 149
